# System: HT-1080 cells
# experimental.details: HT-1080 cell viability assay (ferroptosis induced by RSL3, Cell Titer-Glo)
# Format: cell-based
# condition: Homo sapiens, HT-1080, 20 h, ferroptosis inducer RSL3, 20 hours, ferroptosis inhibitory activity, Table 2
value.type: EC50

- CC(C)(C)c1ccc(NC2CCC(N)C2)cc1 (stereo not drawn): 100 to 1000 nM
- CC1(C)CN(c2ccc(NC[C@H]3CC[C@H](N)CC3)cc2F)CC(C)(C)O1: 0.1 to 100 nM
- CC(C)(C)c1ccc(NC2CCC(CCN)CC2)cc1 (single isomer, unassigned) [Compound 200A]: 0.1 to 100 nM
- Cc1cc(C)c(NC2CCC(CN)CC2)c(C)c1 (stereo not drawn): 1000 to 10000 nM
- CC1(C)CCC(c2ccc(NC(C)(C)CN3CCCC3)cc2)CC1: 100 to 1000 nM
- CCCC1CN(c2ncc(NC3CCC(N)CC3)cn2)C1 (stereo not drawn): 100 to 1000 nM
- N[C@H]1CC[C@@H](Nc2ccc(N3CCC(C(F)(F)F)CC3)cc2)CC1: 0.1 to 100 nM
- CC1CC(C)CN(c2ncc(NC3CC4(CC(NC(=O)C(N)=O)C4)C3)cn2)C1 (stereo not drawn): 0.1 to 100 nM
- CN(C)CCOC1CCC(Nc2ccc(C(C)(C)C)cc2)CC1 (stereo not drawn) [Compound 319A]: 100 to 1000 nM
- CC1CN(c2ccc(NC[C@H]3CC[C@H](N)CC3)cc2C#N)CC(C)O1 (stereo partly drawn): 0.1 to 100 nM
- CC1(C)CCC(c2ccc(NC3CNC(=O)C3)cc2)CC1 (stereo not drawn): 100 to 1000 nM
- CC1CCN(c2ncc(NC3CCC(N)CC3)cn2)CC1 (stereo not drawn): 0.1 to 100 nM

###

# Tested on: HT-1080 cells
# experimental.details: HT-1080 cell viability assay (ferroptosis induced by RSL3, Cell Titer-Glo)
# Format: cell-based
# condition: Homo sapiens, HT-1080, 20 h, ferroptosis inducer RSL3, 20 hours, ferroptosis inhibitory activity, Table 2
pEC50: −log10 of the molar value.
Reported pEC50 is given for each of the following compounds.
value.type: pEC50

* CC(C)C1CCN(c2ncc(NC3C4CC5CC3CC(O)(C5)C4)cn2)CC1 (centres unmarked) | 7.00 to 10.00
* CN(C)C1CCC(Nc2ccc(C(C)(C)C)cc2)CC1 (single isomer, unassigned) [Compound 193A] | 6.00 to 7.00
* COCCCCOc1cc(NC2CCC(N)CC2)ccc1N1CCC(C(F)(F)F)CC1 (centres unmarked) | 7.00 to 10.00
* CC1(C)CCC(c2ccc(NC3CC(C(N)=O)C3)cc2)CC1 (centres unmarked) | 7.00 to 10.00
* CCc1nc(N2C[C@@H](C)O[C@@H](C)C2)ccc1NC[C@H]1CC[C@H](N)CC1 | 7.00 to 10.00
* CC(C)(C)c1ccccc1NC1CCC(N)CC1 (centres unmarked) | 5.00 to 6.00
* CC1(C)CCN(CCNc2ccc(C(C)(C)C)cc2)CC1 | 6.00 to 7.00
* Cc1cc(C)cc(NC2CCC(N)CC2)c1 (centres unmarked) | 6.00 to 7.00
* COCCCCNc1ccc(N2CCC(C(F)(F)F)CC2)cc1 | 7.00 to 10.00
* CC(C)C1CCN(c2ncc(NC3CCC(N)C3)cn2)CC1 (centres unmarked) | 7.00 to 10.00
* CC1(N)CCC(Nc2ccc(C(C)(C)C)cc2)CC1 (single isomer, unassigned) [Compound 231A] | 7.00 to 10.00
* CN1CCC(Nc2ccc(N3CCC(C(F)(F)F)CC3)cc2)C1 (centres unmarked) | 7.00 to 10.00
* CC1CCC(Nc2ccc(C(C)(C)C)cc2)CC1 (centres unmarked) | 6.00 to 7.00
* CCc1ccc(NC2CCC(N)CC2)cc1C (centres unmarked) | 6.00 to 7.00
* N[C@@H]1CCC[C@H]1Nc1ccc(N2CCC(C(F)(F)F)CC2)cc1 | 7.00 to 10.00
* CC1(C)CCC(c2ccc(NCCCN)cc2)CC1 | 7.00 to 10.00
* Cc1ccc(NC[C@H]2CC[C@H](N)CC2)cc1C | 7.00 to 10.00

###

# Test system: HT-1080 cells
# experimental.details: HT-1080 cell viability assay (ferroptosis induced by RSL3, Cell Titer-Glo)
# Assay type: cell-based
# condition: Homo sapiens, HT-1080, 20 h, ferroptosis inducer RSL3, 20 hours, ferroptosis inhibitory activity, Table 2
value.type: EC50

• NC1CCC(Nc2cccnc2)CC1 (centres unmarked) = 1000 to 10000 nM
• COCCN(C)CCNc1ccc(C(C)(C)C)cc1 = 1000 to 10000 nM
• Cc1cc(C(C)(C)C)ccc1NC1CCC(N)CC1 (centres unmarked) = 100 to 1000 nM
• CCCOc1ccc(NC2CCC(N)CC2)cc1 (centres unmarked) = 0.1 to 100 nM
• CN(C)CCNC1CCC(Nc2ccc(C(C)(C)C)cc2)CC1 (centres unmarked) = 0.1 to 100 nM
• NC1CC2(C1)CC(Nc1ccc(N3CCN(CC(F)(F)F)CC3)cc1)C2 (centres unmarked) = 0.1 to 100 nM
• CC1(C)CCC(c2ccc(NC3CCC(CN)CC3)cn2)CC1 (centres unmarked) = 100 to 1000 nM
• CCNc1ccc(N2CCC(C(F)(F)F)CC2)cc1 = 0.1 to 100 nM
• CC(C)C1CCN(c2ncc(NC3CCC(C)(N)CC3)cn2)CC1 (centres unmarked) = 0.1 to 100 nM
• CC1(C)CCC(C)(C)c2cc(NC[C@H]3CC[C@H](N)CC3)ccc21 = 0.1 to 100 nM
• CC(C)(C)c1ccc(NC2CCC(NC(=O)C3CNC(=O)C3)CC2)cc1 (single isomer, unassigned) [Compound 114A] = 100 to 1000 nM

###

# Tested on: HT-1080 cells
# experimental.details: HT-1080 cell viability assay (ferroptosis induced by RSL3, Cell Titer-Glo)
# Assay type: cell-based
# condition: Homo sapiens, HT-1080, 20 h, ferroptosis inducer RSL3, 20 hours, ferroptosis inhibitory activity, Table 2
value.type: EC50

- CC(C)(C)c1ccc(NC[C@H]2CC[C@@H](N)CC2)cc1: 0.1 to 100 nM
- COC(=O)C1CCC(Nc2ccc(N3CCC(C(F)(F)F)CC3)cc2)CC1 (centres unmarked): 0.1 to 100 nM
- Cc1cc(N2CCC(C(F)(F)F)CC2)c(F)cc1NC1CCC(N)CC1 (centres unmarked): 0.1 to 100 nM
- Cc1nc(N2CC3CCC2CO3)ccc1NC1CC2(CC(N)C2)C1 (centres unmarked): 0.1 to 100 nM
- CC(C)(C)OC(=O)N[C@H]1CC[C@H](CNc2ccc(N3CC4CC(C3)O4)c(F)c2)CC1: 0.1 to 100 nM
- Cc1cc(NC2CC(C(N)=O)C2)ccc1N1CCC(C(F)(F)F)CC1 (centres unmarked): 0.1 to 100 nM
- NC1CC2(C1)CC(Nc1ccc(C3CCN(CC(F)(F)F)CC3)cc1)C2 (centres unmarked): 0.1 to 100 nM
- CC1CN(c2ccc(NC3CC4(CC(N)C4)C3)cn2)CC(C)O1 (centres unmarked): 100 to 1000 nM
- Cc1ccc(NC2CCC(N)CC2)cc1C (centres unmarked): 100 to 1000 nM
- CCCCOc1ccc(NC2CCC(N)CC2)cc1 (single isomer, unassigned) [Compound 142A]: 0.1 to 100 nM
- CCCCCCOc1cc(NC2CCC(N)CC2)ccc1C(C)(C)C (centres unmarked): 0.1 to 100 nM
- CCC1CCN(c2ccc(NC3CCC(N)CC3)cc2)CC1 (centres unmarked): 0.1 to 100 nM
- Cc1nc(N2CC(C)SC(C)C2)ccc1NC1CC2(CC(N)C2)C1 (centres unmarked): 0.1 to 100 nM
- Cc1nc(N2CCC3(CCCOC3)CC2)ccc1NC1CC2(CC(N)C2)C1 (centres unmarked): 0.1 to 100 nM
- COc1cc(NC[C@H]2CC[C@H](N)CC2)ccc1N1C[C@@H](C)O[C@@H](C)C1: 100 to 1000 nM
- CC(C)C1CCN(c2ncc(NC3C[C@H]4CC(NO)C[C@H]4C3)cn2)CC1 (some centres unmarked): 0.1 to 100 nM
- N[C@H]1CC[C@H](Nc2ccc(N3CCC(C(F)(F)F)CC3)cc2)CC1: 0.1 to 100 nM
- NC1C[C@@H]2CC(Nc3ccc(N4CCC(C(F)(F)F)CC4)cc3F)C[C@@H]2C1 (some centres unmarked): 0.1 to 100 nM
- Cc1nc(N2CC(C)OC(C)C2)ccc1NC1CC2CCC1CC2N (centres unmarked): 100 to 1000 nM
- CC(C)C1CCN(c2ncc(NC3CC(CN)C3)cn2)CC1 (centres unmarked): 0.1 to 100 nM
- CC1(C)CCC(c2ccc(NC3CCC(N)CC3)cc2)CC1 (single isomer, unassigned) [Compound 120A]: 0.1 to 100 nM
- Cc1ccc(NC2CCC(CN)CC2)cc1C (centres unmarked): 100 to 1000 nM
- CC(C)C1CCN(c2ncc(NC[C@H]3CC[C@H](NC(N)=O)CC3)cn2)CC1: 0.1 to 100 nM
